System: HOP-92
protocol_description: NCI tumour cell line growth inhibition, 48 h
Calls of active or inactive are those of the source. Rule as the data show it: active = GI50 up to about 1.1 µM and inactive = higher.
recorded_metric: GI50

COc1ccc(C(=O)C(c2ccc(OC)cc2)C2(O)C(=O)Nc3ccc([N+](=O)[O-])cc32)cc1 (stereo unspecified)	32.9 µM (inactive)

Kindly state the measured GI50 obtained for `CCOC(=O)c1ccc(/N=C\c2ccc(N(CCC#N)CCC#N)cc2)cc1` with HOP-92. > 100 µM (inactive)

Form entry - test system: HOP-92; read-out: GI50; compound: `NS(=O)(=O)c1nn2c(Br)c(-c3ccccc3)nc2s1` 8.77 µM (inactive)

What is its GI50 for HOP-92? Entry: NC1=NN(c2ccccc2)C(=O)C1C(=O)C(=O)Nc1cccc(C(F)(F)F)c1 (stereo unspecified) 23.7 µM (inactive)

Item `CC(=O)Nc1cc(CN2CCCCC2)c(O)c2ncccc12` with HOP-92 - GI50? 49.5 µM (inactive)

# get_value(readout= GI50, system= HOP-92) for `COc1cc2cc3c4c(cc(OC)c(OC)c4c2cc1OC)CCN3C(=O)OCCN1CCNCC1` 12.9 µM (inactive)

Observed GI50 on HOP-92 for CN1C(=O)N(C)C2(CCN(CC(CC3OCCO3)c3ccc(F)cc3)CC2)C1=O (stereo unspecified) , please. > 100 µM (inactive)

What reported GI50 corresponds to CC(C)(C)OC(=O)N1CCC2(C)CC(=O)CC=C12 (stereo unspecified) on HOP-92? > 100 µM (inactive)

Param readout= GI50; system= HOP-92; entry= `Cc1cc(OC(=O)c2c(C)cc(OC(=O)c3c(C)cc(O)cc3O)cc2O)cc(O)c1C(=O)O` ; returns value. 69.5 µM (inactive)

Form field - read-out: GI50; system: HOP-92; submitted item: `C=C(C)[C@H]1C2=CC(C(=O)OC)=C(C[C@H](C(=C)C)[C@@H](O)[C@@H](O)C3=C[C@H]1OC3=O)O2` 65.5 µM (inactive)

###

System: SR
protocol_description: NCI tumour cell line growth inhibition, 48 h
Calls of active or inactive are those of the source. Cut-off read from the data, not from the text of the source: active = GI50 up to about 1.1 µM and inactive = higher.
recorded_metric: GI50

# annotated cases, reported GI50 shown
CC(=O)OC1CC[C@]2(C)C3CC[C@@]4(C)C(CCC4[C@H](C)CCCC(C)C)[C@@H]3CCC2(Br)C1 (some centres undefined)	9.44 µM (inactive)
O=C(Cc1ccccc1)NNc1nc(NNC(=O)c2ccncc2)nc(Nc2ccc(Cl)cc2)n1	> 10 µM (inactive)
COC1=C2C[C@](OC)(C#CC=CC#CC2O)CC1(C)C (some centres undefined)	56.4 µM (inactive)

# GI50 lookup, item `COc1cc(NS(C)(=O)=O)ccc1NCc1c2ccccc2nc2ccccc12` 4.71 µM (inactive)

Please report the recorded GI50 for `C=C(C)[C@H]1C2=CC(C)=C(O2)[C@@H](O[C@@H]2c3oc(cc3C)[C@H](C(=C)C)[C@H]3C=C(CC[C@H]2C(=C)C)C(=O)O3)[C@H](C(=C)C)CCC2=C[C@H]1OC2=O` . > 100 µM (inactive)

I would be grateful if you could share the reported GI50 for `CC(=O)c1c2n(n(-c3ccccc3)c1=O)C(=O)c1nccnc1-2` . > 100 µM (inactive)

Value lookup for GI50; key = CC(C)=CCC/C(C)=C/CC/C(C)=C/C(O)c1ccccc1 (centres undefined) 20.7 µM (inactive)

Value lookup for GI50; key = `COc1ccc2c(c1)c[n+](C)c1c3cc(OC)c(OC)cc3ccc21` 1.38 µM (inactive)

Recorded GI50 for `COc1c(NC(C)=O)c2ccccc2c2ccccc12` , please? > 100 µM (inactive)

###

Test system: EKVX
protocol_description: NCI tumour cell line growth inhibition, 48 h
Calls of active or inactive are those of the source. Cut-off read from the data, not from the text of the source: active = GI50 up to about 1.1 µM and inactive = higher.
recorded_metric: GI50

Fill blank: measured GI50 of the molecule `CC(C)OP(=O)(OC(C)C)/C(F)=N/Nc1ccc([N+](=O)[O-])cc1` is ____. > 100 µM (inactive)

What value of measured GI50 is listed for `COC(=O)Oc1nn(C(=O)OC)c(=O)c2ccccc12` ? > 100 µM (inactive)

Would you kindly share the measured GI50 for `C=C(C)[C@H]1C2=CC(C)=C(O2)[C@@H](O[C@@H]2c3oc(cc3C)[C@H](C(=C)C)[C@H]3C=C(CC[C@H]2C(=C)C)C(=O)O3)[C@H](C(=C)C)CCC2=C[C@H]1OC2=O` ? > 100 µM (inactive)

What GI50 value was documented for this molecule, `C1=CCN(c2ccccc2)CC1` ? 97.1 µM (inactive)

# get_value(readout='GI50', item= `c1ccc2c(c1)nc1n2CCSC1` ) > 100 µM (inactive)

GET /values?readout=GI50&item= `CCCCCCc1cc2cc(-c3cn4c(n3)sc3ccccc34)c(=O)oc2cc1O` 99.8 µM (inactive)

Requested read-out: GI50. Entry: `CN(C)NC(=S)NC12CC3CC(CC(C3)C1)C2` > 100 µM (inactive)

# lookup: GI50 of `CCN(CC)c1c(C(=O)/C=C/c2ccc(Cl)cc2)c(-c2ccccc2)nn(C)c1=O` 2.07 µM (inactive)

Look up GI50: `CCOC(=O)c1ccc(/N=C\c2ccc(N(CCC#N)CCC#N)cc2)cc1` > 100 µM (inactive)

GET /values?readout=GI50&item= `Cc1oc2nc1C(=O)NCc1nc(cs1)C(=O)N[C@H](C(C)C)c1nc(cs1)C(=O)N[C@H]2C` > 100 µM (inactive)

###

System: SF-295
protocol_description: NCI tumour cell line growth inhibition, 48 h
Calls of active or inactive are those of the source. No stated cut-off is given here; in the data, active = GI50 up to about 1.1 µM and inactive = higher.
Entry note: the call must match one of active, inactive

Consider the following illustrative entries.
Nc1ccc2c(c1)N(C(=O)c1cc3cc(NC(=O)c4cc5ccccc5o4)ccc3[nH]1)CC2CCl (stereo not drawn)	active
C=CC(Br)(CBr)CCC(Br)C(C)C (stereo not drawn)	inactive

What call does the record list for `NC1=NNC(=O)c2nnc3c(C(=O)O)cnn3c2S1` ? inactive

For `O=[N+]([O-])c1ccc(-c2nc3ccccc3o2)cc1` , which call appears in the assay record? inactive

For COc1ccc2c(c1)C(CCN)C(=O)N2 (stereo not drawn) , which call appears in the assay record? inactive

Which outcome was assigned to `c1ccc2sc(C3(N4CCC5(CC4)OCCO5)CCCCC3)cc2c1` in this test? inactive

Dear colleague, could you share the recorded outcome for COc1cc(CNC2c3cc4c(cc3C(c3cc(OC)c(OC)c(OC)c3)[C@H]3C(=O)OCC23)OCO4)cc(OC)c1OC (stereo partly drawn) when you have a moment? active

# lookup: test call for `c1ccc2c(c1)nc1n2CCSC1` inactive

###

Form field: GI50 (one value per entry).
Tested on: SF-295
protocol_description: NCI tumour cell line growth inhibition, 48 h
The source made the active and inactive calls. Cut-off read from the data, not from the text of the source: active = GI50 up to about 1.1 µM and inactive = higher.

O=C(NCCCN1CCN(CCCNC(=O)c2cnc3ccccc3n2)CC1)c1cnc2ccccc2n1	> 100 µM (inactive)
CN/N=C(/CCN1CCCC1)CC(c1ccccc1)c1c(O)c2ccccc2oc1=O (stereo not given)	> 100 µM (inactive)

Lab request: please report GI50 under test system SF-295 for `c1ccc2c(c1)Nc1ccccc1[P+]21c2ccccc2Nc2ccccc21` 1.3 µM (inactive)

Provide value of GI50 for this record tested with SF-295: `O=S(=O)(c1ccc(Cl)cc1)c1ccccc1C1=NCCN1` > 100 µM (inactive)

Recall the recorded GI50 for `Cc1nc2sc(C(=O)c3ccc(Cl)cc3)c(N)c2c(-c2ccccc2Cl)c1C(=O)Nc1ccccc1` with SF-295 and state it. 20.7 µM (inactive)

###

Tested on: RXF 631
protocol_description: NCI tumour cell line growth inhibition, 48 h
The source made the active and inactive calls. Rule as the data show it: active = GI50 up to about 1.1 µM and inactive = higher.
Overview of reported GI50 across a group of compounds:

Example entries and their recorded answers appear below.
COc1cc(NS(C)(=O)=O)ccc1NCc1c2ccccc2nc2ccccc12	15 µM (inactive)
O=C1O[C@@H](c2ccccc2)C[C@@H]1CN1CCOCC1	> 100 µM (inactive)
CC[As](CC)SCC1OC(OC(C)=O)C(OC(C)=O)C(OC(C)=O)C1OC(C)=O (centres undefined)	2.67 µM (inactive)

API: the following record is the query input.
Entry under review: NC1=NN(c2ccccc2)C(=O)C1C(=O)C(=O)Nc1cccc(C(F)(F)F)c1 (centres undefined) . Reported GI50? > 100 µM (inactive)

###

Test system: HT-29
protocol_description: NCI tumour cell line growth inhibition, 48 h
Calls of active or inactive are those of the source. Cut-off read from the data, not from the text of the source: active = GI50 up to about 1.1 µM and inactive = higher.
Thanks in advance; please answer with one of these: YES = active, NO = inactive

Returns: the outcome recorded for `Cc1cc(N(CCC#N)CCC#N)ccc1/C=C1N=C(/C=C\c2ccccc2)N(c2ccc(Cl)cc2)C\1=O` in this assay. NO

Which outcome did this test record for the molecule CC1CSC(=S)N1C(=O)N1C(=S)SCC1C (configuration not stated) ? NO

Each molecule tested received a call. Report the one for `CC(=O)c1c2n(n(-c3ccccc3)c1=O)C(=O)c1nccnc1-2` . NO

What did the test return for `Cc1cc(C)c2c(O)cc(-c3cccc4ccccc34)nc2n1` ? YES

In this assay, the call recorded for `CCN(CC)c1c(C(=O)/C=C/c2ccc(Cl)cc2)c(-c2ccccc2)nn(C)c1=O` was what? NO
